Tested on: non-growing P. aeruginosa DSM1117
Assay: Dilution-regrowth assay (OD600, start-growth-time) on stationary-phase P. aeruginosa
Type: cell-based, Pseudomonas aeruginosa
Settings: P. aeruginosa; concentration 0.5; average
Regrowth, OD600 at 6h or 8h after dilution into drug-free medium for assorted compounds

> print(dat)
                                   compound  recordedresult
1  COc1c(N2C[C@@H]3CCCN[C@@H]3C2)c(F)cc2c(=O)c(C(=O)O)cn(C3CC3)c12           0.215
2  CO/N=C1\CN(c2nc3c(cc2F)c(=O)c(C(=O)O)cn3C2CC2)CC1CN (stereo not shown)           0.138
3  N[C@@H]1CCCCN(c2c(F)cc3c(=O)c(C(=O)O)cn(C4CC4)c3c2Cl)C1           0.201

# input for lookup
### Prompt Give me measured Regrowth, OD600 at 6h or 8h after dilution into drug-free medium, please, for this compound: CCCCCCCCN=c1ccn(CCCCCCCCCCn2ccc(=NCCCCCCCC)cc2)cc1
### Response 0.602
